I'd appreciate it if you could supply IC50 values for the items below.
- TARGET_SYSTEM: oncoprotein E7 from Human Papilloma Virus type 16 as GST fusion protein (E7-GST), phosphorylated by CK2 enzyme (Human papillomavirus type 16, UniProt P03129)
- Sequence (P03129 whole entry, looked up, the tested form may be a part): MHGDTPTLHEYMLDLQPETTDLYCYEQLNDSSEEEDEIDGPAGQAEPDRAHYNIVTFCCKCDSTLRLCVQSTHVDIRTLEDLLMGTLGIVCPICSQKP
- Format: biochemical
- ASSAY_SETUP: read-out: Inhibitory concentration 50 (IC50)
Numbers only, in nM.

Clc1cc(Cl)cc(Nc2nc(C(Cl)(Cl)Cl)nc(C(Cl)(Cl)Cl)n2)c1 : 40
CC(C)(NC(=O)NCCCl)c1ccccc1 : 30

// each listed molecule needs a value for IC50
1. NCCC(=O)NCc1ccccc1
2. NNC(=O)CNc1ccc(F)c(C(F)(F)F)c1
3. CC(C)(CS(C)(=O)=O)NC(=O)NCCCl
4. O=S(=O)(O)Nc1cnc(O)nc1O
5. OCCNCCCNc1ccnc2cc(Cl)ccc12
6. CC(Br)C(=O)NCC(=O)NCC(=O)O (centres unmarked)
7. O=C1NC(=O)C(CS(=O)(=O)Nc2cccc(C(F)(F)F)c2)N1 (centres unmarked)
8. NC(=S)NN=CCn1ccc(=O)n(CC=NNC(N)=S)c1=O

1: 26; 2: 30; 3: 24; 4: 21; 5: 25; 6: 32; 7: 30; 8: 30

Given CC(C(=O)NCC(O)CO)n1ccnc1[N+](=O)[O-] (centres unmarked) , state its recorded IC50. 26

The measurements presented in this section are drawn from patent US8748411B2.
